biological target: proprotein convertase PC2; test: enzyme inhibition, pERTKR-MCA hydrolysis (fluorescence), competitive Ki
Sequence (P21661 109-637): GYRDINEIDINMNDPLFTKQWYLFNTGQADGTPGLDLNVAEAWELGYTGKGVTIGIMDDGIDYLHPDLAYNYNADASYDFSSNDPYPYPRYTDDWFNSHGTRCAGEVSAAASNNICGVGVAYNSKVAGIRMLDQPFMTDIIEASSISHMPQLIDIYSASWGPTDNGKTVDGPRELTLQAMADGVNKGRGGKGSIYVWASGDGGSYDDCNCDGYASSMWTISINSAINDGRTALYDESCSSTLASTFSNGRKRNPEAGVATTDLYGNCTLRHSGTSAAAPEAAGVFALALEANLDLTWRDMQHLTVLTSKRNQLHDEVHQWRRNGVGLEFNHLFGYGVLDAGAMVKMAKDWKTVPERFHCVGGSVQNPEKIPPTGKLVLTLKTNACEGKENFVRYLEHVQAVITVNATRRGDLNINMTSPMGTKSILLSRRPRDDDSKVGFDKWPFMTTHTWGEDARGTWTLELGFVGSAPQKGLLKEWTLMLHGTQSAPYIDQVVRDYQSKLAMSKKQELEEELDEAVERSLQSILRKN
Non-standard residues stand in square brackets, D forms with d.
Reported metric: Ki (µM)
Report the figure in µM without appending any unit label.

Worked examples, 3 binders total:
>  <Binder>
Ac-[dW][dR][dR][dR][dR][dR]-NH2 (SMILES CC(=O)N[C@H](Cc1c[nH]c2ccccc12)C(=O)N[C@H](CCCNC(=N)N)C(=O)N[C@H](CCCNC(=N)N)C(=O)N[C@H](CCCNC(=N)N)C(=O)N[C@H](CCCNC(=N)N)C(=O)N[C@H](CCCNC(=N)N)C(N)=O) [Ac-wrrrrr-NH2]

>  <Numeric result>
334

$$$$
>  <Binder>
Ac-[dW][dR][dR][dR][dR][dL]-NH2 (SMILES CC(=O)N[C@H](Cc1c[nH]c2ccccc12)C(=O)N[C@H](CCCNC(=N)N)C(=O)N[C@H](CCCNC(=N)N)C(=O)N[C@H](CCCNC(=N)N)C(=O)N[C@H](CCCNC(=N)N)C(=O)N[C@H](CC(C)C)C(N)=O) [Ac-wrrrrl-NH2]

>  <Numeric result>
203

$$$$
>  <Binder>
Ac-[dW][dR][dR][dR][dI][dL]-NH2 (SMILES CC[C@@H](C)[C@@H](NC(=O)[C@@H](CCCNC(=N)N)NC(=O)[C@@H](CCCNC(=N)N)NC(=O)[C@@H](CCCNC(=N)N)NC(=O)[C@@H](Cc1c[nH]c2ccccc12)NC(C)=O)C(=O)N[C@H](CC(C)C)C(N)=O) [Ac-wrrril-NH2]

>  <Numeric result>
601

$$$$

Consider the record given below.
Qu. Fill in: Ki of Ac-[dW][dR][dR][dR][dI][dR]-NH2 (SMILES CC[C@@H](C)[C@@H](NC(=O)[C@@H](CCCNC(=N)N)NC(=O)[C@@H](CCCNC(=N)N)NC(=O)[C@@H](CCCNC(=N)N)NC(=O)[C@@H](Cc1c[nH]c2ccccc12)NC(C)=O)C(=O)N[C@H](CCCNC(=N)N)C(N)=O) [Ac-wrrrir-NH2] is ___
Ans. 399
